Cited source: the supplement of paper PMC8728848

- Assayed Target: Fuc(a1-2)Gal(b1-4)GlcNAc(b1-2)Man
- Measurement Notes: glycan array binding signal (z-score within array); higher = stronger binding
- Condition Label: glycan notation: IUPAC condensed, linker removed
About 410 targets per protein were measured; listed, in parts, are those with the strongest signals and a random draw of the rest.
Entries and their glycan array binding signal (z-score)

Study these solved cases before continuing.
Requested field: glycan array binding signal (z-score). Item: Langerin K299A/K313A (Homo sapiens), Q9UJ71 (protein) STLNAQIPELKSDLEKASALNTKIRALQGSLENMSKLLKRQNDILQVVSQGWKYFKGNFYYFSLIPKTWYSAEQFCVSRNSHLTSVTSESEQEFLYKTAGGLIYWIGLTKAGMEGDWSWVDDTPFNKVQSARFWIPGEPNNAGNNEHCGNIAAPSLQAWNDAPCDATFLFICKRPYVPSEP -0.127

Requested field: glycan array binding signal (z-score). Item: EULS2 M2 (Oryza sativa) (protein) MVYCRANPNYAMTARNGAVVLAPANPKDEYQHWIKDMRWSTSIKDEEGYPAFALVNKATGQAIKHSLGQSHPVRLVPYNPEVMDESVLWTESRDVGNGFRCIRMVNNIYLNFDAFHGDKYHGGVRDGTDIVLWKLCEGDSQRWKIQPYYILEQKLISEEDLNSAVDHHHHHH -0.221

Next binder, glycan array binding signal (z-score) to be filled in.
Requested field: glycan array binding signal (z-score). Item: DC-Sign-R (Homo sapiens), Q9H2X3 (protein) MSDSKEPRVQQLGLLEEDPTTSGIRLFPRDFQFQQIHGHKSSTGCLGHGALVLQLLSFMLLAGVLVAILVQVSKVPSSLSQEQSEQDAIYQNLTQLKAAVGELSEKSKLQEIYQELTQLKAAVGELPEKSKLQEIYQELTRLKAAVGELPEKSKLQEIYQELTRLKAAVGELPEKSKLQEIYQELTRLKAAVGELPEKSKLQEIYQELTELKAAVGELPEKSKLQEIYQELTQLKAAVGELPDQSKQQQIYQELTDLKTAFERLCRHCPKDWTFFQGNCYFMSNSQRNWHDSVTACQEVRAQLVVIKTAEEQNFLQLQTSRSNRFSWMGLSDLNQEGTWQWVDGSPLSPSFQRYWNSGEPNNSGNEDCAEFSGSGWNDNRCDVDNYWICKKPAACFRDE 1.11
